meta.source: ChEMBL document CHEMBL3758163

Target: Tyrosine-protein kinase SYK (Homo sapiens) (UniProt P43405)
Assay: Inhibition of SYK (unknown origin) at 500 nM
Quick reference for inhibition among some compounds

structure notation	inhibition (%)
COc1cc(CO)ccc1-c1cc2c(N[C@H](CO)c3ccccc3)ncnc2s1	10
CN(C)CCNC(=O)c1ccc(-c2cc3c(N[C@H](CO)c4ccccc4)ncnc3s2)cc1	23
COc1ccc(C(=O)NCCN(C)C)cc1-c1cc2c(N[C@H](C)c3ccccc3)ncnc2s1	2
COc1cc(CO)ccc1-c1cc2c(Nc3ccccc3)ncnc2s1	38
COc1cc(C(N)=O)ccc1-c1cc2c(N[C@H](CO)c3ccccc3)ncnc2s1	17

----------
Each record here notes measured inhibition.
Target: Mitogen-activated protein kinase 14 (Homo sapiens) (UniProt Q16539)
Sequence (Q16539 whole entry): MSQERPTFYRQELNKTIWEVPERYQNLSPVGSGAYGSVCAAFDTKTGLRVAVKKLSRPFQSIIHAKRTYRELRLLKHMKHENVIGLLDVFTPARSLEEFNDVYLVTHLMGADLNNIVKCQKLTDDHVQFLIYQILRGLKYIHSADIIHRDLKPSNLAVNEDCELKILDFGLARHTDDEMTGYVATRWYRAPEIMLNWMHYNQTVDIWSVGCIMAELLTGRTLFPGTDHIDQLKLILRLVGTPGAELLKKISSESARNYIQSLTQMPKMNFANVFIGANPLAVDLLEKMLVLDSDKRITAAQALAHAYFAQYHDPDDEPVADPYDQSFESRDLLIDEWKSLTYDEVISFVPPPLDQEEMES
Assay: Inhibition of MAPK14 (unknown origin) at 500 nM

structure notation	units text	inhibition
COc1cc(CO)ccc1-c1cc2c(N[C@H](CO)c3ccccc3)ncnc2s1	%	13
COc1cc(CO)ccc1-c1cc2c(N[C@H](C)c3ccccc3)ncnc2s1	%	1
COc1cc(C(N)=O)ccc1-c1cc2c(N[C@H](CO)c3ccccc3)ncnc2s1	%	6
COc1cc(CO)ccc1-c1cc2c(Nc3ccccc3)ncnc2s1	%	8
C[C@@H](Nc1ncnc2sc(-c3ccc(C(=O)NCCN(C)C)cc3)cc12)c1ccccc1	%	7
C#Cc1cccc(Nc2ncnc3cc(OCCOC)c(OCCOC)cc23)c1	%	13
CN(C)CCNC(=O)c1ccc(-c2cc3c(N[C@H](CO)c4ccccc4)ncnc3s2)cc1	%	9
COc1ccc(C(=O)NCCN(C)C)cc1-c1cc2c(N[C@H](C)c3ccccc3)ncnc2s1	%	8
C[C@@H](Nc1ncnc2sc(-c3ccccc3C(N)=O)cc12)c1ccccc1	%	9
COc1cc(CO)ccc1-c1cc2c(Nc3ccc(F)c(Cl)c3)ncnc2s1	%	6

----------
Molecular target: Platelet-derived growth factor receptor alpha (Homo sapiens) (UniProt P16234)
Sequence (P16234 whole entry): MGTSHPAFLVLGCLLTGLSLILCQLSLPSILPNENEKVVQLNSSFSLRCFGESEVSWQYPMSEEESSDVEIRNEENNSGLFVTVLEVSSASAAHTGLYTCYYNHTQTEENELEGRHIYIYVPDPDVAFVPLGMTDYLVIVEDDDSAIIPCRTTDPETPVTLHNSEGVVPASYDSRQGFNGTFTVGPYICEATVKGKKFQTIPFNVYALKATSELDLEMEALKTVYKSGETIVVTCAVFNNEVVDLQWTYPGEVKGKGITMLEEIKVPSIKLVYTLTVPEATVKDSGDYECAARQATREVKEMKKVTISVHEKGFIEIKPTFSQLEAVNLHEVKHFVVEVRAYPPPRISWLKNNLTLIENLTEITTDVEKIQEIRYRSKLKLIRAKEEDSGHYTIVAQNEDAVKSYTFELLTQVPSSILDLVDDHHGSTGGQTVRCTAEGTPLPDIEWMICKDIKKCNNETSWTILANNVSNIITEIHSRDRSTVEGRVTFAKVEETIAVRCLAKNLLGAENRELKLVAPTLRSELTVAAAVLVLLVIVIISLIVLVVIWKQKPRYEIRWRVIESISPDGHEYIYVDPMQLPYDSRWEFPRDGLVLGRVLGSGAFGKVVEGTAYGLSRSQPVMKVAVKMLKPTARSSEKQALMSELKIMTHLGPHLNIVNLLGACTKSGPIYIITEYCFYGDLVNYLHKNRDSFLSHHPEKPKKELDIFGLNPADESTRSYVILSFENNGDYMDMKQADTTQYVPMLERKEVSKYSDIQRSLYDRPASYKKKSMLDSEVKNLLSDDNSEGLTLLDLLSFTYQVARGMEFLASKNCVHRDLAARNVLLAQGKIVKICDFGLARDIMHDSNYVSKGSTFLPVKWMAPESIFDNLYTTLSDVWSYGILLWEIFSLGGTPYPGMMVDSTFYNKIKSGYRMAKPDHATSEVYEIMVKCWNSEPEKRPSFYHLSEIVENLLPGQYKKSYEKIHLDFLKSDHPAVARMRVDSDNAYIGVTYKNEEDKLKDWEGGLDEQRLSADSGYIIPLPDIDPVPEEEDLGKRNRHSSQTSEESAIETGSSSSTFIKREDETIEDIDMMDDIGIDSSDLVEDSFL
Experiment: Inhibition of PDGFRA (unknown origin) at 500 nM
Measured inhibition values are reported for all entries that follow.
value type: inhibition (%)

structure notation	value type	value reported
CN(C)CCNC(=O)c1ccc(-c2cc3c(N[C@H](CO)c4ccccc4)ncnc3s2)cc1	inhibition	10
COc1cc(CO)ccc1-c1cc2c(N[C@H](C)c3ccccc3)ncnc2s1	inhibition	1
C[C@@H](Nc1ncnc2sc(-c3ccccc3C(N)=O)cc12)c1ccccc1	inhibition	-7
COc1ccc(C(=O)NCCN(C)C)cc1-c1cc2c(N[C@H](C)c3ccccc3)ncnc2s1	inhibition	-3
COc1cc(C(N)=O)ccc1-c1cc2c(N[C@H](CO)c3ccccc3)ncnc2s1	inhibition	0

----------
Target: Platelet-derived growth factor receptor beta (Homo sapiens) (UniProt P09619)
Sequence (P09619 whole entry): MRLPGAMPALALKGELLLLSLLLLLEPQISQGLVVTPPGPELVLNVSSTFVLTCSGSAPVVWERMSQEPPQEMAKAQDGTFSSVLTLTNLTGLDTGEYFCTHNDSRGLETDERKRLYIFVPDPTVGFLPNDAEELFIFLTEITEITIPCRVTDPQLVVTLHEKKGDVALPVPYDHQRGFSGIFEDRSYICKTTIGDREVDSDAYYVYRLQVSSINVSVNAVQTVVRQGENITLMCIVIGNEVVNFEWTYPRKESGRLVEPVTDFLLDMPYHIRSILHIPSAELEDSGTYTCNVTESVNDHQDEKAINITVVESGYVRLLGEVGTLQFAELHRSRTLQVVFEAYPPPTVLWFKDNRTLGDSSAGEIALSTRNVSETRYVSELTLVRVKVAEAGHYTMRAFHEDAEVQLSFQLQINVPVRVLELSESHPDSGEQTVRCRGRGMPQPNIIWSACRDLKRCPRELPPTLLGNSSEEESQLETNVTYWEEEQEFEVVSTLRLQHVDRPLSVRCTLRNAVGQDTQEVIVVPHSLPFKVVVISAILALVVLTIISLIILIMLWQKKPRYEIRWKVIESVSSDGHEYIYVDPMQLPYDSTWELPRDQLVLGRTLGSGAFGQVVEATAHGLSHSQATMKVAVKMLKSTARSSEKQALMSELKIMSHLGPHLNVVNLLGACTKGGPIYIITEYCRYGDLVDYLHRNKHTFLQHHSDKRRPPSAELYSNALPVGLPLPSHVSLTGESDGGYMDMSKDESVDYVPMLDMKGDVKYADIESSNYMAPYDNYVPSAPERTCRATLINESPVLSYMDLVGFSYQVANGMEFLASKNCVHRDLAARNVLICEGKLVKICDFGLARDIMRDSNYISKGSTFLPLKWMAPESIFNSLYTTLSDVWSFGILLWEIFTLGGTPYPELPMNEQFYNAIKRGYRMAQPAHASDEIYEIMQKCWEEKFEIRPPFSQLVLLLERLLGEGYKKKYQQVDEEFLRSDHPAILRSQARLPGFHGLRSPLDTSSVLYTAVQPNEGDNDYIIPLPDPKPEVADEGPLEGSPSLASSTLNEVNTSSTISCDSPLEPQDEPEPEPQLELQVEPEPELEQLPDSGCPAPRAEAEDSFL
Assay: Inhibition of PDGFRB (unknown origin) at 500 nM
value type: inhibition (%)

molecule	units text	value reported
COc1ccc(C(=O)NCCN(C)C)cc1-c1cc2c(N[C@H](C)c3ccccc3)ncnc2s1	%	0
COc1cc(CO)ccc1-c1cc2c(N[C@H](CO)c3ccccc3)ncnc2s1	%	1
CN(C)CCNC(=O)c1ccc(-c2cc3c(N[C@H](CO)c4ccccc4)ncnc3s2)cc1	%	-5
C#Cc1cccc(Nc2ncnc3sc(-c4ccc(CO)cc4OC)cc23)c1	%	13
C[C@@H](Nc1ncnc2sc(-c3ccc(C(=O)NCCN(C)C)cc3)cc12)c1ccccc1	%	6
COc1cc(CO)ccc1-c1cc2c(Nc3ccc(F)c(Cl)c3)ncnc2s1	%	-3
COc1cc(CO)ccc1-c1cc2c(N[C@H](C)c3ccccc3)ncnc2s1	%	3
C[C@@H](Nc1ncnc2sc(-c3ccccc3C(N)=O)cc12)c1ccccc1	%	6
C#Cc1cccc(Nc2ncnc3cc(OCCOC)c(OCCOC)cc23)c1 [ERLOTINIB]	%	-5
COc1cc(CO)ccc1-c1cc2c(Nc3ccccc3)ncnc2s1	%	-3
COc1cc(C(N)=O)ccc1-c1cc2c(N[C@H](CO)c3ccccc3)ncnc2s1	%	8
